Molecular target: human JAK3 catalytic kinase (JH1) domain (Homo sapiens (Human), UniProt P52333)
Sequence (P52333 822-1111): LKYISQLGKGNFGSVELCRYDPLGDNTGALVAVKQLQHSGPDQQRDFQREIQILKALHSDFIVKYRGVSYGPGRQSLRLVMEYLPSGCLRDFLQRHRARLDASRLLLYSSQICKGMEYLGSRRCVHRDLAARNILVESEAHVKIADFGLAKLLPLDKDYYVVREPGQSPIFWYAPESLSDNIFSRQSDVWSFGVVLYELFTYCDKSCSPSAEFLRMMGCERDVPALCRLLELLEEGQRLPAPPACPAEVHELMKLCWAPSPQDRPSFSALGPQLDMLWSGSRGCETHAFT
Assay: ADP-Glo Kinase Assay, recombinant JAK3 catalytic kinase (JH1) domain
Assay type: biochemical
Settings: recombinant JH1 domain 0.3 nM, 4 μM ATP, JAK3-974 peptide, mean, read-out: JAK3 biochem IC50 (nM) Mean
Simple rule here: IC50 less than 5000 nM is fulfilled, otherwise not fulfilled.

>  <Compound>
Cc1cncc(-c2cc3c(N4CC5CCC(C4)N5C(=O)[C@@H]4C[C@H]4F)ccnn3c2)n1

>  <Measurement target>
human JAK3 catalytic kinase (JH1) domain (Homo sapiens (Human), UniProt P52333)

>  <Class assignment>
not fulfilled

$$$$
>  <Compound>
Cc1cc(-c2cc3c(N4CC5CCC(C4)N5C(=O)[C@@H]4C[C@H]4F)ncnn3c2)on1

>  <Measurement target>
human JAK3 catalytic kinase (JH1) domain (Homo sapiens (Human), UniProt P52333)

>  <Class assignment>
not fulfilled

$$$$
>  <Compound>
O=C(C1CC1)N1C2CCC1CN(c1ncnn3cc(-c4ccc(Cl)nc4)cc13)C2

>  <Measurement target>
human JAK3 catalytic kinase (JH1) domain (Homo sapiens (Human), UniProt P52333)

>  <Class assignment>
not fulfilled

$$$$
>  <Compound>
O=C(C1CC1)N1C2CCC1CN(c1ncnc3[nH]c(-c4cnn(C(F)F)c4)cc13)C2

>  <Measurement target>
human JAK3 catalytic kinase (JH1) domain (Homo sapiens (Human), UniProt P52333)

>  <Class assignment>
fulfilled

$$$$
>  <Compound>
Cn1cc(-c2cc3c(N4CC5CCC(C4)N5S(=O)(=O)C4CC4)ccnn3c2)cn1

>  <Measurement target>
human JAK3 catalytic kinase (JH1) domain (Homo sapiens (Human), UniProt P52333)

>  <Class assignment>
fulfilled

$$$$
>  <Compound>
O=C(C1CC1)N1C2CCC1CN(c1ncnn3cc(-c4cnn([C@H]5CCOC5)c4)cc13)C2

>  <Measurement target>
human JAK3 catalytic kinase (JH1) domain (Homo sapiens (Human), UniProt P52333)

>  <Class assignment>
fulfilled

$$$$
>  <Compound>
O=C([C@H]1C[C@@H]1F)N1C2CCC1CN(c1ncnn3cc(-c4cnn(C(F)F)c4)cc13)C2 (racemic) [Example 54]

>  <Measurement target>
human JAK3 catalytic kinase (JH1) domain (Homo sapiens (Human), UniProt P52333)

>  <Class assignment>
fulfilled

$$$$

---

Target: human JAK3 catalytic kinase (JH1) domain (Homo sapiens (Human), UniProt P52333)
Assay: ADP-Glo Kinase Assay, recombinant JAK3 catalytic kinase (JH1) domain
Assay type: biochemical
Settings: recombinant JH1 domain 0.3 nM, 4 μM ATP, JAK3-974 peptide, mean, read-out: JAK3 biochem IC50 (nM) Mean
Readout name: IC50

>  <Molecule>
Cn1cc(-c2cc3c(N4CC5CCC(C4)N5S(=O)(=O)C4CC4)ccnc3[nH]2)cn1 [Example 193]

>  <Measurement target>
human JAK3 catalytic kinase (JH1) domain (Homo sapiens (Human), UniProt P52333)

>  <Readout name>
IC50

>  <Value measured>
199 nM

$$$$
>  <Molecule>
Cn1cc(-c2cc3c(N4CC5CCC(C4)N5C(=O)[C@@H]4C[C@H]4F)ccnn3c2)cn1 [Example 159]

>  <Measurement target>
human JAK3 catalytic kinase (JH1) domain (Homo sapiens (Human), UniProt P52333)

>  <Readout name>
IC50

>  <Value measured>
263 nM

$$$$
>  <Molecule>
COc1ccc(-c2cc3c(N4CC5CCC(C4)N5C(=O)[C@@H]4C[C@H]4F)ccnn3c2)nn1 [Example 122]

>  <Measurement target>
human JAK3 catalytic kinase (JH1) domain (Homo sapiens (Human), UniProt P52333)

>  <Readout name>
IC50

>  <Value measured>
940 nM

$$$$
>  <Molecule>
Cc1cc(-c2cc3c(N4CC5CCC(C4)N5C(=O)[C@@H]4C[C@H]4F)ccnn3c2)ncn1 [Example 106]

>  <Measurement target>
human JAK3 catalytic kinase (JH1) domain (Homo sapiens (Human), UniProt P52333)

>  <Readout name>
IC50

>  <Value measured>
3200 nM

$$$$
>  <Molecule>
O=C([C@@H]1C[C@H]1F)N1C2CCC1CN(c1ccnn3cc(-c4ccc(=O)n(C(F)F)c4)cc13)C2 [Example 132]

>  <Measurement target>
human JAK3 catalytic kinase (JH1) domain (Homo sapiens (Human), UniProt P52333)

>  <Readout name>
IC50

>  <Value measured>
452 nM

$$$$
>  <Molecule>
C[C@]1(F)C[C@@H](C(=O)N2C3CCC2CN(c2ncnn4cc(-c5cnn(C(F)F)c5)cc24)C3)C1 [Example 33]

>  <Measurement target>
human JAK3 catalytic kinase (JH1) domain (Homo sapiens (Human), UniProt P52333)

>  <Readout name>
IC50

>  <Value measured>
4430 nM

$$$$
>  <Molecule>
CCn1cc(-c2cc3c(N4CC5CCC(C4)N5C(=O)C4CC4)ncnn3c2)cn1 [Example 147]

>  <Measurement target>
human JAK3 catalytic kinase (JH1) domain (Homo sapiens (Human), UniProt P52333)

>  <Readout name>
IC50

>  <Value measured>
2090 nM

$$$$

---

Biological target: human JAK2 catalytic kinase (JH1) domain (Homo sapiens (Human))
Sequence (O60674 849-1124): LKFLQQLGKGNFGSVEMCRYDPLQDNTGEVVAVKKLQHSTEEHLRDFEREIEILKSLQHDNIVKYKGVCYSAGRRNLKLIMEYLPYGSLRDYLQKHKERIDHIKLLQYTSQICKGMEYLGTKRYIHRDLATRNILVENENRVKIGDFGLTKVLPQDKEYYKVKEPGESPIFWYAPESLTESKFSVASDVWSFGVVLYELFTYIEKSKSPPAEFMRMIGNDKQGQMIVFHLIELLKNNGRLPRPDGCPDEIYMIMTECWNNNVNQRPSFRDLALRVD
Assay: ADP-Glo Kinase Assay, recombinant JAK2 catalytic kinase (JH1) domain
Assay type: biochemical
Settings: recombinant JH1 domain 0.2 nM, 15 μM ATP, JAK3-974 peptide, mean, read-out: JAK2 biochem IC50 (nM) Mean
Counter-ions that a name gives are not always drawn.

>  <Compound>
O=C([C@@H]1C[C@H]1F)N1C2CCC1CN(c1ccnn3cc(-c4ccc(=O)n(C(F)F)c4)cc13)C2 [Example 132]

>  <IC50, nM>
37

$$$$
>  <Compound>
Cn1cc(-c2cc3c(N4CC5CCC(C4)N5S(=O)(=O)[C@H]4CC4(F)F)ccnn3c2)cn1 [Example 197]

>  <IC50, nM>
99

$$$$
>  <Compound>
COc1cc(-c2nc3c(N4CC5CCC(C4)N5C(=O)[C@@H]4C[C@H]4F)ccnc3[nH]2)ccn1 [Example 203]

>  <IC50, nM>
42

$$$$
>  <Compound>
CC(C)(F)C(=O)N1C2CCC1CN(c1ncnn3cc(-c4cnn(C(F)F)c4)cc13)C2 [Example 32, trifluoroacetate]

>  <IC50, nM>
4400

$$$$
>  <Compound>
Cn1cc(-c2[nH]c3nccc(N4CC5CCC(C4)N5C(=O)[C@@H]4C[C@H]4F)c3c2C#N)cn1 [Example 250]

>  <IC50, nM>
53

$$$$
>  <Compound>
CC1C(C(=O)N2C3CCC2CN(c2ncnn4cc(-c5cnn(C(F)F)c5)cc24)C3)C1(F)F (stereo not shown) [Example 5]

>  <IC50, nM>
3050

$$$$
>  <Compound>
O=C(C1C[C@H]1F)N1C2CCC1CN(c1ncnc3[nH]c(-c4cncc(F)c4)cc13)C2 (stereo partly shown) [Example 229]

>  <IC50, nM>
1740

$$$$

---

Target: human JAK3 catalytic kinase (JH1) domain (Homo sapiens (Human))
Assay: ADP-Glo Kinase Assay, recombinant JAK3 catalytic kinase (JH1) domain
Type: biochemical
Settings: recombinant JH1 domain 0.3 nM, 4 μM ATP, JAK3-974 peptide, mean, read-out: JAK3 biochem IC50 (nM) Mean
Structures can show the parent of a compound that is named as a salt.
Readout name: IC50 (nM)

>  <Compound>
O=C(C1C[C@H]1F)N1C2CCC1CN(c1ncnc3[nH]c(-c4ccncc4F)cc13)C2 (stereo partly shown)

>  <Value measured>
848

$$$$
>  <Compound>
COc1cc(-n2cc3nccc(N4CC5CCC(C4)N5C(=O)[C@@H]4C[C@H]4F)c3n2)ccn1

>  <Value measured>
868

$$$$
>  <Compound>
COc1cc(-c2nc3c(N4CC5CCC(C4)N5C(=O)[C@@H]4C[C@H]4F)ccnc3[nH]2)ccn1

>  <Value measured>
578

$$$$
>  <Compound>
O=C(C1CC(O)(C(F)(F)F)C1)N1C2CCC1CN(c1ncnn3cc(-c4cnn(C(F)F)c4)cc13)C2 (stereo not shown) [Example 36, trifluoroacetate]

>  <Value measured>
5840

$$$$
>  <Compound>
C[C@]1(F)C[C@H](C(=O)N2C3CCC2CN(c2ncnn4cc(-c5cnn(C(F)F)c5)cc24)C3)C1

>  <Value measured>
9510

$$$$
>  <Compound>
O=C([C@@H]1C[C@H]1F)N1C2CCC1CN(c1ccnn3cc(-c4ccc(C(F)(F)F)nc4)cc13)C2

>  <Value measured>
878

$$$$
>  <Compound>
COc1nn(C)cc1-c1cc2c(N3CC4CCC(C3)N4C(=O)[C@@H]3C[C@H]3F)ncnn2c1

>  <Value measured>
1640

$$$$

---

Target: human JAK3 catalytic kinase (JH1) domain (Homo sapiens (Human), UniProt P52333)
Assay: ADP-Glo Kinase Assay, recombinant JAK3 catalytic kinase (JH1) domain
Format: biochemical
Details: recombinant JH1 domain 0.3 nM, 4 μM ATP, JAK3-974 peptide, mean, read-out: JAK3 biochem IC50 (nM) Mean
Under this convention, condition met denotes IC50 strictly below 4000 nM and condition not met denotes IC50 at or above 4000 nM.

>  <Compound>
O=C([C@@H]1C[C@H]1F)N1C2CCC1CN(c1ccnn3cc(-c4ccnnc4)cc13)C2

>  <Class assignment>
condition met

$$$$
>  <Compound>
CCC(=O)N1C2CCC1CN(c1ncnn3cc(-c4cnn(C(F)F)c4)cc13)C2

>  <Class assignment>
condition not met

$$$$
>  <Compound>
O=C([C@@H]1C[C@H]1F)N1C2CCC1CN(c1ncnc3[nH]c(-c4ccc(C(F)(F)F)nc4)cc13)C2

>  <Class assignment>
condition not met

$$$$
>  <Compound>
N#Cc1cccc(-c2cc3c(N4CC5CCC(C4)N5C(=O)C4CC4)ncnn3c2)c1

>  <Class assignment>
condition not met

$$$$
>  <Compound>
Cn1cc(-c2cn3nccc(N4CC5CCC(C4)N5C(=O)[C@@H]4C[C@H]4F)c3n2)cn1

>  <Class assignment>
condition met

$$$$
>  <Compound>
O=C([C@@H]1C[C@H]1F)N1C2CCC1CN(c1ccnn3cc(-c4ccnc(N5CCC5)c4)cc13)C2

>  <Class assignment>
condition not met

$$$$
>  <Compound>
O=C(C1CC(F)C1)N1C2CCC1CN(c1ncnn3cc(-c4cnn(C(F)F)c4)cc13)C2 (stereo not shown)

>  <Class assignment>
condition not met

$$$$
>  <Compound>
O=C([C@H]1C[C@@H]1F)N1C2CCC1CN(c1ncnn3cc(-c4cnn(C(F)F)c4)cc13)C2 [Example 4]

>  <Class assignment>
condition met

$$$$
>  <Compound>
Cn1cc(-c2nc3c(N4CC5CCC(C4)N5C(=O)[C@@H]4C[C@H]4F)c(F)cnc3[nH]2)c(F)n1

>  <Class assignment>
condition met

$$$$
>  <Compound>
Cn1cc(-c2cc3c(N4CC5CCC(C4)N5C(=O)[C@H]4CC4(F)F)ncnn3c2)cn1

>  <Class assignment>
condition not met

$$$$
>  <Compound>
COc1nccc(-c2cc3c(N4CC5CCC(C4)N5C(=O)[C@@H]4C[C@H]4F)ccnn3c2)c1F

>  <Class assignment>
condition met

$$$$
>  <Compound>
CCC(=O)N1C2CCC1CN(c1ncnn3cc(-c4cnn(C)c4)cc13)C2

>  <Class assignment>
condition not met

$$$$
>  <Compound>
Cn1cc(-c2cc3c(N4CC5CCC(C4)N5C(=O)C4COC4)ncnn3c2)cn1

>  <Class assignment>
condition not met

$$$$
>  <Compound>
O=C([C@H]1CC1(F)F)N1C2CCC1CN(c1ncnn3cc(-c4cnn(C(F)F)c4)cc13)C2 [Example 8]

>  <Class assignment>
condition met

$$$$
